# TESTED SYSTEM: Stromal interaction molecule 1 & 2/Calcium release-activated calcium channel protein 1 (Mus musculus) (UniProt Q8BWG9+P70302+P83093)
# ASSAY NOTES: Modulation of STIM1/STIM2/Orai1 in mouse BV2 cells assessed as induction of store-operated calcium entry by measuring residual activity at 10 uM preincubated for 30 mins followed by tBhQ-mediated Ca2+ depletion and Ca2+ re-addition to extracellular solution measured for 600 secs by Fluo-4 AM-based fluorometric assay relative to control
# Type: cell-based
This section presents compounds with their documented Activity values.
METRIC NAME: Activity (%)

STRUCTURE SMILES STRING	RESULT UNITS	NUMERIC VALUE
CCOC(=O)c1cnn(-c2ccc(-n3cc(-c4ccccc4NC(C)=O)nn3)cc2)c1C(F)(F)F	%	72
CCOC(=O)c1cnn(-c2ccc(-c3cn(-c4cc(OC)cc(OC)c4)nn3)cc2)c1C(F)(F)F	%	113
CCOC(=O)c1cnn(-c2ccc(-c3cn(-c4cccnc4)nn3)cc2)c1C(F)(F)F	%	62.6
COc1ccc(-c2cn(-c3ccc(-n4nc(C(F)(F)F)cc4C(F)(F)F)cc3)nn2)cc1OC	%	109
CCOC(=O)c1cnn(-c2ccc(-n3cc(-c4ccc(OC)c(OC)c4)nn3)cc2)c1C(F)(F)F	%	82.8
FC(F)(F)c1cc(C(F)(F)F)n(-c2ccc(-c3cn(-c4ccc(Cl)cc4)nn3)cc2)n1	%	116
CCOC(=O)c1cnn(-c2ccc(-n3cc(-c4cccc(O)c4)nn3)cc2)c1C(F)(F)F	%	96.5
Nc1cccc(-c2cn(-c3ccc(-n4nc(C(F)(F)F)cc4C(F)(F)F)cc3)nn2)c1	%	103
CCOC(=O)c1cnn(-c2ccc(-n3cc(-c4ccccc4)nn3)cc2)c1C(F)(F)F	%	86.1
O=C(O)c1cccc(-c2cn(-c3ccc(-n4nc(C(F)(F)F)cc4C(F)(F)F)cc3)nn2)c1	%	61.3
CCOC(=O)c1cnn(-c2ccc(-n3cc(-c4cccnc4)nn3)cc2)c1C(F)(F)F	%	91.6
COc1ccc(-n2cc(-c3ccc(-n4nc(C(F)(F)F)cc4C(F)(F)F)cc3)nn2)cc1OC	%	94.3
O=C(O)c1cccc(-n2cc(-c3ccc(-n4nc(C(F)(F)F)cc4C(F)(F)F)cc3)nn2)c1	%	80.2
CCOC(=O)c1cnn(-c2ccc(-c3cn(-c4ccc(OC)cc4)nn3)cc2)c1C(F)(F)F	%	83.1
COc1cc(OC)cc(-c2cn(-c3ccc(-n4nc(C(F)(F)F)cc4C(F)(F)F)cc3)nn2)c1	%	75.2
CCOC(=O)c1cnn(-c2ccc(-c3cn(-c4cccc(O)c4)nn3)cc2)c1C(F)(F)F	%	106
FC(F)(F)c1cc(C(F)(F)F)n(-c2ccc(-c3cn(-c4ccccc4)nn3)cc2)n1	%	99.7
CCOC(=O)c1cnn(-c2ccc(-c3cn(-c4ccncc4F)nn3)cc2)c1C(F)(F)F	%	62.3
CC(=O)Nc1cccc(-n2cc(-c3ccc(-n4nc(C(F)(F)F)cc4C(F)(F)F)cc3)nn2)c1	%	101
FC(F)(F)c1cc(C(F)(F)F)n(-c2ccc(-c3cn(-c4ccccn4)nn3)cc2)n1	%	88.8
CCOC(=O)c1cnn(-c2ccc(-c3cn(-c4ccc(Cl)cc4)nn3)cc2)c1C(F)(F)F	%	153
CCOC(=O)c1cnn(-c2ccc(-n3cc(-c4ccc(NC(C)=O)cc4)nn3)cc2)c1C(F)(F)F	%	106
CCOC(=O)c1cnn(-c2ccc(-c3cn(-c4ccc(Oc5ccccc5)cc4)nn3)cc2)c1C(F)(F)F	%	101
FC(F)(F)c1cc(C(F)(F)F)n(-c2ccc(-n3cc(-c4ccccn4)nn3)cc2)n1	%	114
CCOC(=O)c1cnn(-c2ccc(-c3cn(-c4cccc(C(=O)O)c4)nn3)cc2)c1C(F)(F)F	%	56.7
FC(F)(F)c1cc(C(F)(F)F)n(-c2ccc(-n3cc(-c4ccc(Oc5ccccc5)cc4)nn3)cc2)n1	%	73.5
Nc1ccc(-c2cn(-c3ccc(-n4nc(C(F)(F)F)cc4C(F)(F)F)cc3)nn2)cc1	%	98.1
CCOC(=O)c1cnn(-c2ccc(-n3cc(-c4ccc(Cl)cc4)nn3)cc2)c1C(F)(F)F	%	88.6
CCOC(=O)c1cnn(-c2ccc(-c3cn(-c4cccc(OC)c4)nn3)cc2)c1C(F)(F)F	%	117
CCOC(=O)c1cnn(-c2ccc(-c3cn(-c4ccc(N)cc4)nn3)cc2)c1C(F)(F)F	%	93.2

---

This section presents compounds with their documented Activity values.
# TESTED SYSTEM: Short transient receptor potential channel 1 & 3/Stromal interaction molecule 1/Calcium release-activated calcium channel protein 1 (Homo sapiens) (UniProt Q96D31+Q13507+Q13586+P48995)
# Sequence (P48995 whole entry partner): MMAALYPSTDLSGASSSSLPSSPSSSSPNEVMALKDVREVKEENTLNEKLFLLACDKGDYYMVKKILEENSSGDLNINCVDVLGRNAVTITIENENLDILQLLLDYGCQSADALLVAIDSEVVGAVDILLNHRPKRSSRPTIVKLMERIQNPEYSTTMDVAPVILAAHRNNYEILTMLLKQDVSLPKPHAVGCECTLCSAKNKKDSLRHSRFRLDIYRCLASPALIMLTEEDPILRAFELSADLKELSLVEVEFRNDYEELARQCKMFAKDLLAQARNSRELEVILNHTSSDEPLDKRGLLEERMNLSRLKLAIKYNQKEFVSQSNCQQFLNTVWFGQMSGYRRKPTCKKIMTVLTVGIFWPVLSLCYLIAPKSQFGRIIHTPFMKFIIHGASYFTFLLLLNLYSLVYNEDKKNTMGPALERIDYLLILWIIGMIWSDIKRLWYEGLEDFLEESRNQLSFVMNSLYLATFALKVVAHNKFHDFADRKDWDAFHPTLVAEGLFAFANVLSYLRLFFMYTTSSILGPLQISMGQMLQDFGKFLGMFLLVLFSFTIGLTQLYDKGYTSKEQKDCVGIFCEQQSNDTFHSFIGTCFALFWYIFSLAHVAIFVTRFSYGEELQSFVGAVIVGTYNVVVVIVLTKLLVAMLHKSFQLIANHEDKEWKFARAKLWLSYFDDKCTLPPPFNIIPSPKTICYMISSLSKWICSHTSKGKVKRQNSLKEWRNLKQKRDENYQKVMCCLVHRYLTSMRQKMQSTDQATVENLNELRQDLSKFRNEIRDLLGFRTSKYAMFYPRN
# Sequence (Q13507 whole entry partner): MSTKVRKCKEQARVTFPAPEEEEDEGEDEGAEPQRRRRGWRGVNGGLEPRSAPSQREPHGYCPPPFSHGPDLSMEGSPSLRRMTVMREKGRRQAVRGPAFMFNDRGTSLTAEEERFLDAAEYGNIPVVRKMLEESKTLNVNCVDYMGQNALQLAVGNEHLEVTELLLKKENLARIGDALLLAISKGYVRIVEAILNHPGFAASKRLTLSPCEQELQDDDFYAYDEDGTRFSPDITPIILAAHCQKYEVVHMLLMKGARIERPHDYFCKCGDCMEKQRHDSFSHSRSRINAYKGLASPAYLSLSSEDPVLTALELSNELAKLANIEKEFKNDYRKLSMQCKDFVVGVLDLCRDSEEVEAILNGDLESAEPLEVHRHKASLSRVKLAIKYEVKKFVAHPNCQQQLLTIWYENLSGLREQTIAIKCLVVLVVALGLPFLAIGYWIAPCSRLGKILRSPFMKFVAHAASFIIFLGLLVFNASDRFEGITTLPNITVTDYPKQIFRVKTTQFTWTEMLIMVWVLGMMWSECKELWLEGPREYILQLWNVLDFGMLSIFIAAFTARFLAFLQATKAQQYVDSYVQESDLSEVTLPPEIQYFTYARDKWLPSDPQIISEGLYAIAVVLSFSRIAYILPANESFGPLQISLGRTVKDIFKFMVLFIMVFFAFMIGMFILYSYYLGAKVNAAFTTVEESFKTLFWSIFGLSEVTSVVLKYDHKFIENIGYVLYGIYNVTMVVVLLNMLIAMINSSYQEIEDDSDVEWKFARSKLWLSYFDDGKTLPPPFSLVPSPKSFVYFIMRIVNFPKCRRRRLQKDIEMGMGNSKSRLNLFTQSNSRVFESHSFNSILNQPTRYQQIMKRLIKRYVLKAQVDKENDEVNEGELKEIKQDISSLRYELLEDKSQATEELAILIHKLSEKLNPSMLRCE
# Sequence (Q13586 23-685 partner limits assumed): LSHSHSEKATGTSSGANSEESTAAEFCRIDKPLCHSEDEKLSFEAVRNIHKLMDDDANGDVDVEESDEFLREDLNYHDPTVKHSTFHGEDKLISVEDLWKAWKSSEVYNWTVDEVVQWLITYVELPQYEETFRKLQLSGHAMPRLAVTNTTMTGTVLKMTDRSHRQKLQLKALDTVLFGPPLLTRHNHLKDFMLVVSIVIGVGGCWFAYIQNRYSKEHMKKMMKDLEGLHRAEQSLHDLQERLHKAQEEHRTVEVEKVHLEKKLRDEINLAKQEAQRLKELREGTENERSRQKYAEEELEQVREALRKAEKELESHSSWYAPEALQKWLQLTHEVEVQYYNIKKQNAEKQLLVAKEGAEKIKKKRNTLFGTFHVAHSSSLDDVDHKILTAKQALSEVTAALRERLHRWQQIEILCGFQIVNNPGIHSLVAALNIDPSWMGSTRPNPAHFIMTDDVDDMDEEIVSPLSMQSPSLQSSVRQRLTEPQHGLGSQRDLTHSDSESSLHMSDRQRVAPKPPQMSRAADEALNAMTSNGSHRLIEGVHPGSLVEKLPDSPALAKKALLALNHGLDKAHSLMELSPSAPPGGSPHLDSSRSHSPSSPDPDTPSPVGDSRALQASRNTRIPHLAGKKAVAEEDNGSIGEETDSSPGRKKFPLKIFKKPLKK
# Sequence (Q96D31 whole entry): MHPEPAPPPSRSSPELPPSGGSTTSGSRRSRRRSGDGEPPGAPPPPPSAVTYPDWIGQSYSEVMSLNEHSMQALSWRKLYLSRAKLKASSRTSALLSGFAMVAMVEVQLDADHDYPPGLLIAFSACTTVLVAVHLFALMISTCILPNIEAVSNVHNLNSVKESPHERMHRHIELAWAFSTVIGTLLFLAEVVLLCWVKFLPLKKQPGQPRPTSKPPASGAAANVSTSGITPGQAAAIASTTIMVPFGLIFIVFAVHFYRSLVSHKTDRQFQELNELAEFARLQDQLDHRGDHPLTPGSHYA
# ASSAY NOTES: Modulation of TRPC1/TRPC3/STIM1/Orai1 in HEK cells assessed as induction of store-operated calcium entry by measuring residual activity at 10 uM preincubated for 30 mins followed by tBhQ-mediated Ca2+ depletion and Ca2+ re-addition to extracellular solution measured for 600 secs by Fluo-4 AM-based fluorometric assay relative to control
# Type: cell-based
METRIC NAME: Activity

STRUCTURE SMILES STRING	METRIC NAME	RESULT
CC(C)NC(=O)c1cnn(-c2ccc(-n3cc(-c4cccc(C(=O)O)c4)nn3)cc2)c1C(F)(F)F	Activity	> 90%
CCOC(=O)c1cnn(-c2ccc(-c3cn(-c4cccc(C(C)=O)c4)nn3)cc2)c1C(F)(F)F	Activity	> 90%
CCOC(=O)c1cnn(-c2ccc(NC(=O)c3cccc(C(=O)O)c3)cc2)c1C(F)(F)F	Activity	63.5%

---

# TESTED SYSTEM: Stromal interaction molecule 1 & 2/Calcium release-activated calcium channel protein 1 (Mus musculus) (UniProt Q8BWG9+P70302+P83093)
# ASSAY NOTES: Modulation of STIM1/STIM2/Orai1 in mouse BV2 cells assessed as induction of store-operated calcium entry by measuring residual activity at 10 uM preincubated for 30 mins followed by tBhQ-mediated Ca2+ depletion and Ca2+ re-addition to extracellular solution measured for 600 secs by Fluo-4 AM-based fluorometric assay relative to control
# Type: cell-based
Use Fulfilled when the recorded Activity is no lower than 90%; use Not fulfilled when it is lower.

STRUCTURE SMILES STRING	CATEGORY LABEL
COc1cccc(-n2cc(-c3ccc(-n4nc(C(F)(F)F)cc4C(F)(F)F)cc3)nn2)c1	Fulfilled
COc1cc(OC)cc(-n2cc(-c3ccc(-n4nc(C(F)(F)F)cc4C(F)(F)F)cc3)nn2)c1	Fulfilled
CCOC(=O)c1cnn(-c2ccc(-c3cn(-c4ccc(C(=O)O)cc4)nn3)cc2)c1C(F)(F)F	Not fulfilled
CCOC(=O)c1cnn(-c2ccc(-c3cn(-c4ccccc4)nn3)cc2)c1C(F)(F)F	Fulfilled
CC(=O)Nc1ccc(-n2cc(-c3ccc(-n4nc(C(F)(F)F)cc4C(F)(F)F)cc3)nn2)cc1	Fulfilled
CCOC(=O)c1cnn(-c2ccc(-n3cc(-c4ccccn4)nn3)cc2)c1C(F)(F)F	Not fulfilled
